systemTested: Amine oxidase [flavin-containing] A (Homo sapiens)
Sequence (P21397 whole entry): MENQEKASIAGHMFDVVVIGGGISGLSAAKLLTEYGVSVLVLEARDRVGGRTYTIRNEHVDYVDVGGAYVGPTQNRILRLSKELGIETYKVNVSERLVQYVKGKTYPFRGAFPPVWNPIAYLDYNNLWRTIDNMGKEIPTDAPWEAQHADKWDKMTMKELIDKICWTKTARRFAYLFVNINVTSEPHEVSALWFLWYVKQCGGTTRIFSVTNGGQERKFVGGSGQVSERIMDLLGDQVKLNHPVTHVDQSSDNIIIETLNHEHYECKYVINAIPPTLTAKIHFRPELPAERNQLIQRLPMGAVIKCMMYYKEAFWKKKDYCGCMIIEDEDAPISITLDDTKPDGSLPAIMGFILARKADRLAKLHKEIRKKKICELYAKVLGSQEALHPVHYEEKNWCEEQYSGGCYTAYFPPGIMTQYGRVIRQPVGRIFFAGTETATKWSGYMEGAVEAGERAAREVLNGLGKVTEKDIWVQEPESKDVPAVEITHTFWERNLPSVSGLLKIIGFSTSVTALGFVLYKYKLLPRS
assayExplanation: Inhibition of human MAO-A using p-tyramine as substrate assessed as production of H2O2 from p-tyramine incubated for 15 mins by Amplex Red MAO assay
endpointLabel: IC50 (µM)

O=C1COc2cc(OCCCc3ccccc3)ccc21 : 39.3
O=C1COc2cc(OCc3ccccc3)ccc21 : 38.2

(A) O=C1COc2cc(OCCc3ccccc3)ccc21
(B) O=C1CCOc2cc(O)ccc21
Name the one with the greater IC50 value, either A or B as given. When you have decided, please share the label of that item. B
(B: 71.4 µM, A: 46.4 µM)

###

systemTested: Amine oxidase [flavin-containing] B (Homo sapiens, UniProt P27338)
Sequence (P27338 whole entry): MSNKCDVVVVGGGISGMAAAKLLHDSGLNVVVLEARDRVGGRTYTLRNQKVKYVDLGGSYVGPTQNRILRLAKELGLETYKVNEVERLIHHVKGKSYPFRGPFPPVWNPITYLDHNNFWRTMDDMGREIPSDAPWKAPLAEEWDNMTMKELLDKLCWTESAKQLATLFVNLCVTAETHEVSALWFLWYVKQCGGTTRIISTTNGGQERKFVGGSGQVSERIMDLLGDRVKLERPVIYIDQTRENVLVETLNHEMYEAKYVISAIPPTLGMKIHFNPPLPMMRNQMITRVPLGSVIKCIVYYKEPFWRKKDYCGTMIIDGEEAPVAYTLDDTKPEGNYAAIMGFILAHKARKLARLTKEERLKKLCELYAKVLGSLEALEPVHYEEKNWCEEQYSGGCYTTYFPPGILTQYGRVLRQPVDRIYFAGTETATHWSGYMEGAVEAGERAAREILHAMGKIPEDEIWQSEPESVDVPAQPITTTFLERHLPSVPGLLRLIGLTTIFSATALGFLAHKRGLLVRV
assayExplanation: Inhibition of human MAO-B using p-tyramine as substrate assessed as production of H2O2 from p-tyramine incubated for 15 mins by Amplex Red MAO assay
pIC50: −log10 of the molar value.
endpointLabel: pIC50

Worked cases, answers included:
O=C1COc2cc(OCc3ccccc3)ccc21 : 4.82
O=C1CCOc2cc(OCc3cccc(Cl)c3)ccc21 : 7.45

(1) CC1(C)CC(=O)c2ccc(OCc3ccc(Br)cc3)cc2O1
(2) Cc1ccc(COc2ccc3c(c2)OCCC3=O)cc1
Just tell me: smaller pIC50 value, 1 or 2 ? When you have decided, please share the label of that item. 2

(a) Cc1ccc(COc2ccc3c(c2)OC(C)(C)CC3=O)cc1
(b) N#Cc1ccc(COc2ccc3c(c2)OCCC3=O)cc1
Just tell me: smaller pIC50 value, a or b ? When you have decided, please share the label of that item. a
